MEASUREMENT PROTOCOL: Preliminary assessment of in vivo pharmacokinetics in rats
CONDITION SET: rat, plasma, iv, 2 mg/kg, intravenous 2 mg/kg; 8 h; mean; read-out: Plasma drug concentrations in rats
REPORTED ENDPOINT: concentration at 8 h (ng/mL)
A number alone suffices; assume ng/mL.

Challenge: Sample CC(C)Oc1ccc(-c2nc(-c3ccc(CN4CC(C(=O)O)C4)c4ccccc34)no2)cc1C#N.Cl — what was its concentration at 8 h?
Response given: 14.1

----------
MEASUREMENT PROTOCOL: Preliminary assessment of in vivo pharmacokinetics in rats
CONDITION SET: rat, plasma, iv, 2 mg/kg, intravenous 2 mg/kg; 6 h; mean; read-out: Plasma drug concentrations in rats
REPORTED ENDPOINT: concentration at 6 h (ng/mL)
A number alone suffices; assume ng/mL.

Challenge: Sample CC(C)Oc1ccc(-c2nc(-c3ccc(CN4CC(C(=O)O)C4)c4ccccc34)no2)cc1C#N.Cl — what was its concentration at 6 h?
Response given: 48.1

----------
SYSTEM TESTED: S1PR1 (Homo sapiens, UniProt P21453)
Construct: host or cells: CHO-K1 co-expressing Ga15
Sequence (P21453 whole entry): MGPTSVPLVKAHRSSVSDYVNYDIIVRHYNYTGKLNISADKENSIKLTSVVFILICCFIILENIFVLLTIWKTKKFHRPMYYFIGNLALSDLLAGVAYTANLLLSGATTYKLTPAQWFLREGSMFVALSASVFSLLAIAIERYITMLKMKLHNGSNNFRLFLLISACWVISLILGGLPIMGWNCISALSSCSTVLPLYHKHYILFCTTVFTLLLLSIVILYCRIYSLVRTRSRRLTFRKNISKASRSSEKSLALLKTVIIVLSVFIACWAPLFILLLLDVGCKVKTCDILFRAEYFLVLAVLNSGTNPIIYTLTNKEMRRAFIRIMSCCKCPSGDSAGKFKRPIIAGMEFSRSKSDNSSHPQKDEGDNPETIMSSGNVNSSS
MEASUREMENT PROTOCOL: Agonistic activity test on S1P receptors, FLIPR, CHO-K1/Ga15/EDG1 cells
Format: cell-based
CONDITION SET: CHO-K1/Ga15/EDG1 cells, FLIPR agonist mode; read-out: S1PR1 EC50
Collected pEC50 values appear next to each entry.
The meaning of pEC50 here: minus log10 of the concentration in molar units.

// known answers, use as guide
{"columns": ["MOL", "SYSTEM TESTED", "pEC50"],
 "data": [
  ["O=C(O)C1CN(Cc2ccc(-c3noc(-c4ccc5c(c4)OCCO5)n3)c3ccccc23)C1", "S1PR1 (Homo sapiens, UniProt P21453)", 6.21],
  ["O=C(O)C1CN(Cc2ccc(-c3noc(-c4ccc(F)cc4)n3)c3ccccc23)C1", "S1PR1 (Homo sapiens, UniProt P21453)", 5.71],
  ["O=C(O)C1CN(Cc2ccc(-c3noc(-c4ccccn4)n3)c3ccccc23)C1", "S1PR1 (Homo sapiens, UniProt P21453)", 6.00],
  ["O=C(O)C1CN(Cc2ccc(-c3noc(-c4ccc(OC(F)(F)F)cc4)n3)c3ccccc23)C1", "S1PR1 (Homo sapiens, UniProt P21453)", 5.95],
  ["O=C(O)C1CN(Cc2ccc(-c3noc(-c4ccccc4)n3)c3ccccc23)C1", "S1PR1 (Homo sapiens, UniProt P21453)", 6.13]
]}

Challenge: Sample N#Cc1ccc(-c2nc(-c3ccc(CN4CC(C(=O)O)C4)c4ccccc34)no2)cc1 — what was its pEC50?
Response given: 5.95

Challenge: Please answer likewise for CC(C)Oc1ccc(-c2nc(-c3ccc(CN4CC(C(=O)O)C4)c4ccccc34)no2)cc1C(F)(F)F
Response given: 6.45

Challenge: Please answer likewise for CCCc1ccc(-c2nc(-c3ccc(CN4CC(C(=O)O)C4)c4ccccc34)no2)cc1
Response given: 5.90

Challenge: Please answer likewise for O=C(O)C1CN(Cc2ccc(-c3noc(-c4ccc5c(c4)OCO5)n3)c3ccccc23)C1
Response given: 5.89

Challenge: Please answer likewise for O=C(O)C1CN(Cc2ccc(-c3noc(-c4ccc5[nH]ccc5c4)n3)c3ccccc23)C1
Response given: 5.71
